Some compounds, each annotated with its measured Kd.
measured on: UniProt P40337
Sequence (P40337 whole entry): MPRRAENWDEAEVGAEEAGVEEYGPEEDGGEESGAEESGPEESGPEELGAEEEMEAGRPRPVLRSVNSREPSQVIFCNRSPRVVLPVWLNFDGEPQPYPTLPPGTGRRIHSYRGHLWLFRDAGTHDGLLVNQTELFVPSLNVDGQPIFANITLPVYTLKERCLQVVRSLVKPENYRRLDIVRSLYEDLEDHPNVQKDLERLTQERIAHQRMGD
method summary: biochemical
Description: Binding affinity to VHL (unknown origin)-NanoLuc fusion protein expressed in HEK293 cells assessed as apparent dissociation constant incubated for 30 mins in presence of digitonin by NanoBRET assay

Below: 2 compounds and their reported Kd.
# smiles repr, Kd
data = [
    ("CC(=O)N[C@]1(C(=O)N2C[C@H](O)C[C@H]2C(=O)N[C@H](Cc2ccc(-c3ccccc3)cc2)C(N)=O)CC1(C)C", "> 51.8 µM"),
    ("CC(=O)N[C@H](C(=O)N1C[C@H](O)C[C@H]1C(=O)N[C@H](Cc1ccccc1)C(N)=O)C(C)(C)C", "> 51.8 µM"),
]

Below: the item to evaluate.
Task: Answer with the recorded Kd of Cc1ccc(CC(=O)N2C[C@H](O)C[C@H]2C(=O)N[C@H](Cc2ccc(-c3ccccc3)cc2)C(N)=O)cn1 only.
Output: > 51.8 µM
